Experiment: Superoxide scavenging assay (pyrogallol autoxidation)
Conditions: mean ± SEM of three experiments; pyrogallol autoxidation, 325 nm
# Superoxide IC50 per record follows
Reported Metric: Superoxide IC50 (µg/mL)

{"Compound": "O=C(/C=C/c1cn(-c2ccccc2)nc1-c1ccc2ccccc2c1)c1ccc(Cl)cc1", "Relation Symbol": ">", "Measured Number": 200}
{"Compound": "c1ccc(C2=NNC(c3cn(-c4ccccc4)nc3-c3ccc4ccccc4c3)C2)cc1 (centres unmarked)", "Relation Symbol": "=", "Measured Number": 50.42}
{"Compound": "Clc1ccc(C2=NNC(c3cn(-c4ccccc4)nc3-c3ccc4ccccc4c3)C2)cc1Cl (centres unmarked)", "Relation Symbol": "=", "Measured Number": 129.12}
{"Compound": "COc1ccc(C2=NN(C(N)=S)C(c3cn(-c4ccccc4)nc3-c3ccc4ccccc4c3)C2)cc1 (centres unmarked)", "Relation Symbol": ">", "Measured Number": 200}
{"Compound": "Cc1ccc(C2=NN(c3ccccc3)C(c3cn(-c4ccccc4)nc3-c3ccc4ccccc4c3)C2)cc1 (centres unmarked)", "Relation Symbol": "=", "Measured Number": 145.7}
{"Compound": "NC(=S)N1N=C(c2ccccc2)CC1c1cn(-c2ccccc2)nc1-c1ccc2ccccc2c1 (centres unmarked)", "Relation Symbol": "=", "Measured Number": 127.25}
{"Compound": "O=C(/C=C/c1cn(-c2ccccc2)nc1-c1ccc2ccccc2c1)c1ccc(Cl)c(Cl)c1", "Relation Symbol": ">", "Measured Number": 200}
{"Compound": "Cc1ccc(C(=O)/C=C/c2cn(-c3ccccc3)nc2-c2ccc3ccccc3c2)cc1", "Relation Symbol": ">", "Measured Number": 200}

Data credit: paper PMC7170299
